# measured.on: HLA-DR DRB1*0901 (human)
# protocol: radioligand binding
observed.property: IC50 (nM)
Entry rule: numbers only, all in nM.

Query :: What measured IC50 goes with KSEEFQKRLHPYKDFIATLG [PAP_(173-192)] ?
Result :: 93
